test system: OVCAR-8 ovarian; test: NCI tumour cell line growth inhibition, 48 h
What TGI was measured for each of the following?

Q) Report TGI for COc1cccc(C2SC(N)=Nc3c2c(C)nn3C(=O)Cc2ccccc2)c1 (centres undefined)
A) > 100 µM

Q) Report TGI for CCN(Cc1cccc(Cl)c1)c1ccc(CO)c(Cl)c1
A) 23.3 µM

Q) Report TGI for O=Cc1cc(C(=O)OCc2ccccc2)n(S(=O)(=O)c2ccccc2)c1
A) > 100 µM

Q) Report TGI for COc1cc(OC)cc(-c2cc(=O)c3cc4c(cc3[nH]2)OCO4)c1
A) 9.55 µM

Q) Report TGI for Cc1cc(=O)oc2cc(OCC(O)COC(C)C)ccc12 (centres undefined)
A) > 100 µM

Q) Report TGI for O=C1O[C@H]2[C@H](OC(=O)c3cc(O)c(O)c(O)c3)[C@@H](OC(=O)c3cc(O)c(O)c4c3[C@@H]3C1=CC(=O)C(O)(O)C3(O)O4)[C@H](OC(=O)c1cc(O)c(O)c(O)c1)O[C@@H]2COC(=O)c1cc(O)c(O)c(O)c1 (some centres undefined)
A) > 100 µM

Q) Report TGI for Cc1ccc2c(=O)cc(-c3ccc4ccccc4c3)[nH]c2n1
A) > 100 µM

Q) Report TGI for COC(=O)C1=CC2C=CC(C1C(=O)OC)C1C(C(=O)OC)=C(C(=O)OC)C(C(=O)OC)=C(C(=O)OC)C21OC (centres undefined)
A) > 100 µM

Q) Report TGI for CC(C)CC(N)C(=O)Nc1ccc2ccccc2c1 (centres undefined)
A) > 100 µM

###

system: A549 NSCLC; experiment: NCI tumour cell line growth inhibition, 48 h; in the data active means GI50 below about 0.43 µM; inactive means the rest
Result category, one only: active, inactive

Q) Assay result, entry Cc1cc(C)c(-c2c(N)cc(Br)cc2Br)c(N)c1 — outcome?
A) inactive

Q) Assay result, entry CC(=O)[CH-]C(=O)c1ccccc1.CC(=O)[CH-]C(=O)c1ccccc1.CC(=O)[CH-]C(=O)c1ccccc1.[Nd+3].[OH3+] — outcome?
A) inactive

Q) Assay result, entry CC(=O)N1N=C(c2ccc(Nc3nc(Nc4ccc(F)cc4)nc(Nc4ccc(F)cc4)n3)cc2)CC1c1ccc(N(C)C)cc1 (stereo not given) — outcome?
A) inactive

Q) Assay result, entry CO[C@H]1CC(O[C@@H]2/C(C)=C/C[C@@H]3C[C@@H](C[C@]4(CC[C@H](C)[C@@H](C5CCCCC5)O4)O3)OC(=O)[C@@H]3C=C(C)/C(=N/O)[C@H]4OC/C(=C\C=C\[C@@H]2C)[C@]43O)O[C@@H](C)C1O (stereo not given in full) — outcome?
A) inactive

Q) Assay result, entry C=CCC(N[C@@H](CO)c1ccccc1)c1cn(C(=O)OCC)c2ccccc12 (stereo not given in full) — outcome?
A) inactive

Q) Assay result, entry COc1cccc(Nc2nc3ccccc3c3occc23)c1 — outcome?
A) inactive

Q) Assay result, entry CN1CCN(C(=O)COc2ccc(/C=C3\CC4C5CC=C6CC(Cl)CCC6(C)C5CCC4(C)C3=O)cc2)CC1 (stereo not given) — outcome?
A) inactive

Q) Assay result, entry CC(=O)C1=C(O)C=C2Oc3c(C(=O)/C=C/c4cc(Cl)cc(Cl)c4)c(O)c(C)c(O)c3[C@]2(C)C1=O — outcome?
A) inactive

Q) Assay result, entry COc1cc(C2c3cc4c(cc3C(OC(=O)C[n+]3ccccc3)C3COC(=O)C23)OCO4)cc(OC)c1OC (stereo not given) — outcome?
A) active

Q) Assay result, entry Cc1cc(-c2cc(O)ccc2Cl)cc2nnc(Nc3ccc(OCCN4CCCC4)cc3)nc12 — outcome?
A) inactive
